REPORTED_ENDPOINT: melting point

Sample answers from the record:
[
  {
    "COMPOUND": "CCc1cc(CCNc2ncnc3c(F)ccc(F)c23)ccc1Oc1cc(C(F)(F)F)ccn1",
    "DATA_VALUE": "121 to 122 °C"
  },
  {
    "COMPOUND": "CC(C)(C)c1ccc(-c2nc(NC(=O)c3cccnc3)sc2-c2ccncc2)cc1",
    "DATA_VALUE": "326 to 328 °C"
  },
  {
    "COMPOUND": "COc1cc(Cl)c(CO)c(Cl)c1",
    "DATA_VALUE": "71 to 72 °C"
  },
  {
    "COMPOUND": "CCCCCc1csc(-c2ccc3c(c2)C=C(C(=O)Nc2ccc(CN(C)C4CCOCC4)cc2)CCS3(=O)=O)c1",
    "DATA_VALUE": "204 to 206 °C"
  },
  {
    "COMPOUND": "O=[N+]([O-])c1ccc(CCCNCCO)cc1",
    "DATA_VALUE": "82.5 to 84.5 °C"
  }
]

GET /values?readout=melting point&item= `CC(=O)c1ccc(-n2c(-c3cc(-c4ccncc4)c(N4CCOCC4)s3)nc3ccccc3c2=O)cc1`
241 to 242 °C

GET /values?readout=melting point&item= `CCCCCNC(=N)NC(N)=S`
98 to 100 °C

GET /values?readout=melting point&item= `O=c1[nH]c(COCC(F)(F)F)nc2nccnc12`
165 to 167 °C

GET /values?readout=melting point&item= `CCn1c(=O)c2[nH]c(/C=C/c3ccccc3OC)nc2n(CC)c1=O`
> 270 °C

GET /values?readout=melting point&item= `COc1cc(-c2cc(C(F)(F)F)nn2-c2ccc(S(N)(=O)=O)cc2)ccc1-c1cocn1`
143 to 145 °C

GET /values?readout=melting point&item= `CCOC(=O)c1cn(Cc2ccccc2)nc1OCc1ccc(OCc2nc(-c3ccco3)oc2C)c(Cl)c1`
153 to 154 °C

GET /values?readout=melting point&item= `CN(C)C(=O)CN1CCC(c2ccc(Nc3nc4c(-c5ccc[nH]c5=O)cccn4n3)cc2)CC1`
> 250 °C

GET /values?readout=melting point&item= `COc1ccc(N2CCN(CCOCc3ccccc3)C2=O)cc1`
54 to 55 °C

GET /values?readout=melting point&item= `C=CCOC(=O)C1=C(C)NC(C)=C(C(=O)OCC=C)C1c1ccc(Br)cc1`
130 to 131 °C

GET /values?readout=melting point&item= `Cc1ccc(F)c([Si](C)(C)C)c1C(=O)N(C)C(C)(C)C`
44 to 47 °C

GET /values?readout=melting point&item= `NC(=O)COc1cccc(CCNS(=O)(=O)c2cccc(C(F)(F)F)c2)c1`
118 °C

GET /values?readout=melting point&item= `COc1ccccc1COc1nc2c(oc3ccccc32)c(-c2ccc3c(c2)OCCO3)c1C(=O)O`
179 °C

GET /values?readout=melting point&item= CC(C)(C)OC(=O)CN1CC(c2ccc(F)cc2)CCC(N=[N+]=[N-])C1=O (stereo not given)
136 to 137 °C

GET /values?readout=melting point&item= `O=C(CCCl)c1ccc2[nH]c3ccccc3c2c1`
148 to 151 °C

GET /values?readout=melting point&item= `COC(=O)c1c(F)c(F)c(F)c(F)c1C(=O)OC`
68 to 70 °C
